Examples of compounds with documented Survival: age at which all the animals in the group died follow.
- Test system: Drosophila melanogaster flies with human Alzheimer's genes (F1)
- test description: survival of Drosophila melanogaster with Alzheimer's disease
- Format: in vivo
- condition: 100 μM in the food
Respond with the bare value in days.

INSERT INTO measurements (compound, value_units, recorded_number) VALUES
  ('CCC=CCC=CCC=CCC=CCC=CCC=CCC(O)C(=O)OCC(COC(=O)C(O)CC=CCC=CCC=CCC=CCC=CCC=CCC)OC(=O)C(O)CC=CCC=CCC=CCC=CCC=CCC=CCC (centres unmarked)', 'days', 39),
  ('CCC=CCC=CCC=CCC=CCC=CCCC(O)C(=O)OCC(COC(=O)C(O)CCC=CCC=CCC=CCC=CCC=CCC)OC(=O)C(O)CCC=CCC=CCC=CCC=CCC=CCC (centres unmarked)', 'days', 31),
  ('CCCCCC(O)C(=O)OCC(COC(=O)C(O)CCCCC)OC(=O)C(O)CCCCC (centres unmarked) [TGM0, 1,2,3-tri(2′-hydroxyheptanoyl)glycerol]', 'days', 30),
  ('CCCCCC=CCC=CCCCCCCC(O)C(=O)OCC(COC(=O)C(O)CCCCCCC=CCC=CCCCCC)OC(=O)C(O)CCCCCCC=CCC=CCCCCC (centres unmarked)', 'days', 33),
  ('CCC=CCC=CCC=CCCCCCCC(O)C(=O)OCC(COC(=O)C(O)CCCCCCC=CCC=CCC=CCC)OC(=O)C(O)CCCCCCC=CCC=CCC=CCC (centres unmarked)', 'days', 40),
  ('CCCCCCCCC=CCCCCCCC(O)C(=O)OCC(COC(=O)C(O)CCCCCCC=CCCCCCCCC)OC(=O)C(O)CCCCCCC=CCCCCCCCC (centres unmarked)', 'days', 45);

-- ask Could you tell me which Survival: age at which all the animals in the group died is on file for CCCCCC=CCC=CCC=CCCCC(O)C(=O)OCC(COC(=O)C(O)CCCC=CCC=CCC=CCCCCC)OC(=O)C(O)CCCC=CCC=CCC=CCCCCC (centres unmarked) ?
-- reply 31

-- ask Same lookup for CCCCCC=CCC=CCC=CCC=CCCC(O)C(=O)OCC(COC(=O)C(O)CCC=CCC=CCC=CCC=CCCCCC)OC(=O)C(O)CCC=CCC=CCC=CCC=CCCCCC (centres unmarked) , please.
-- reply 44
